Target: T1, StpA-CTD (Escherichia coli, UniProt P0ACG1 90-134)
T1 chain: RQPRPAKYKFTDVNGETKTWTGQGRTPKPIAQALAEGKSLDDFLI
Assay: ITC; 5 C; n=1.74; 50 mM BisTris, 25 mM NaCl, pH 6.4; ITC at 5 and 25 C (40 uM RNA in cell, StpA-CTD 400/800/920 uM injected); NMR with 10% D2O, titration at 25 C
Conditions: protein: recombinant; tags: none (His6-SUMOstar removed by SUMO protease); chain copies: 2; hairpin (5'-fold)
observation_type: Kd (µM)
Expressed in µM, but write only the number.

I would be grateful if you could share the reported Kd for GACCGGAAGGUCC (structured_RNA) [5'-HP] .
13.3
